Provide the reported Kd of each item.
target: T1, human ACTH 1-13 (human, ends and bridges not checked); experiment: SPR ProteOn, antibody immobilised; SPR, antibody on the chip, alpha-MSH alone (Table 6)
T1 construct: also called human alpha-MSH (ACTH 1-13); alpha-MSH
T1 peptide: SYSMEHFRWGKPV
Ends that are not written are not given here.
Give just the number in nM; leave the unit off.

Query :: Kd lookup needed for Ab9 (antibody, human IgG1, kappa, N297A, V domains shown, rabbit/human chimeric antibody, made in HEK-293) VH: QSVEESGGRLVTPGTPLTLTCTVSGFSLNSYAMSWVRQAPGEGLEWIGIISDSGRTYYASWAKGRFTISKTSTTVDLKITSPTTEDTATYFCAREPEYGYDDYGDWVSDLWGPGTLVTVSS VL: DVVMTQTPASVEAAVGGTVTIKCQASQSISSYLSWYQQKPGQPPKLLIYRASTLASGVPSRFKGSGSGTQFTLTISDLECADAATYYCQSYYYSSSITYRNAFGGGTEVVVKR , thanks.
Result :: 63

Query :: // lookup Kd for Ab7 (antibody, human IgG1, kappa, N297A, V domains shown, rabbit/human chimeric antibody, made in HEK-293) VH: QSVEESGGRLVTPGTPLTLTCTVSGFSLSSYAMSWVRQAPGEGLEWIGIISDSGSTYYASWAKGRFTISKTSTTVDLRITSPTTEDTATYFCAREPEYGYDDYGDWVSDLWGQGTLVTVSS VL: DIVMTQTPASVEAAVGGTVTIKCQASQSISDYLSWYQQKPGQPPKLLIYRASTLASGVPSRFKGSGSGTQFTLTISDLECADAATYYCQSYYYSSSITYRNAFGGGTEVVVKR
Result :: 54

Query :: Which Kd value belongs to Ab6 (antibody, human IgG1, kappa, N297A, V domains shown, rabbit/human chimeric antibody, made in HEK-293) VH: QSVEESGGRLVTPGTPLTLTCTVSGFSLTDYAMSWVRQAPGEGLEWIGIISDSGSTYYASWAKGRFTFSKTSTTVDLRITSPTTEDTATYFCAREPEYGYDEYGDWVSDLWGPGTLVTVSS VL: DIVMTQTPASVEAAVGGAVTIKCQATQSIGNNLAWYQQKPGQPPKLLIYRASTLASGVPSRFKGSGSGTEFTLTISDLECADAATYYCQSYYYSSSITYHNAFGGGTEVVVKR ?
Result :: 16

Query :: Consider the binder shown here: Ab5 (antibody, human IgG1, kappa, N297A, V domains shown, rabbit/human chimeric antibody, made in HEK-293) VH: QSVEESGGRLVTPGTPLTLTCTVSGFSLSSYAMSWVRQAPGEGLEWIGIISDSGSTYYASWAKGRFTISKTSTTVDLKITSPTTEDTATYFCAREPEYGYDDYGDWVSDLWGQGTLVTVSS VL: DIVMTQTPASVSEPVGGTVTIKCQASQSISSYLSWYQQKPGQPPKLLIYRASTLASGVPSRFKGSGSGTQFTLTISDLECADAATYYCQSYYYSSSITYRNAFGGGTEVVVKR What is its recorded Kd?
Result :: 55
